B1: Homeobox protein cut-like 2, residues 895 to 963; numbered along this chain, O14529 (parent)
chain: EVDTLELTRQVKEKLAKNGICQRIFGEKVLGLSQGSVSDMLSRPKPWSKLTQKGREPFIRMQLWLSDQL

variants of: B1; assay: abundance fitness (aPCA) (normalised: wild type 0, dead -1); higher = more abundant; growth selection in yeast, the domain comes from the species named; details: Homo sapiens
Overview of reported abundance fitness across a group of variants:
Measured Quantity: abundance fitness

>>> recorded_value("K12E")
-0.348
>>> recorded_value("G35A")
-0.006
>>> recorded_value("Q34A")
0.088
>>> recorded_value("A16Y")
-0.234
>>> recorded_value("G31F")
-0.317
>>> recorded_value("S36I")
0.027
>>> recorded_value("A16Q")
-0.063
>>> recorded_value("K28E")
-0.026
>>> recorded_value("V2N")
-0.136
>>> recorded_value("I59H")
0.051
>>> recorded_value("E1A")
-0.122
>>> recorded_value("K28S")
-0.116
>>> recorded_value("R9E")
-0.1
>>> recorded_value("V37D")
-0.397
>>> recorded_value("Q22D")
-0.457
>>> recorded_value("F25W")
-0.053
>>> recorded_value("E27D")
-0.162
>>> recorded_value("G35D")
-0.125
>>> recorded_value("K17F")
-0.267
>>> recorded_value("K53T")
-0.166
>>> recorded_value("G35S")
0.027
>>> recorded_value("P57D")
-0.085
>>> recorded_value("S42E")
0.059
>>> recorded_value("C21K")
-0.034
>>> recorded_value("F25A")
-0.827
>>> recorded_value("G31Y")
-0.449
>>> recorded_value("P44E")
-0.665
>>> recorded_value("R60T")
-0.209
>>> recorded_value("M40L")
0.136
>>> recorded_value("I20F")
-0.058
>>> recorded_value("V37F")
0.01
>>> recorded_value("E56V")
-0.182
>>> recorded_value("W64A")
-1.17
>>> recorded_value("R55A")
-0.511
>>> recorded_value("V2F")
-0.024
>>> recorded_value("E6F")
-0.192
>>> recorded_value("L65H")
-0.696
>>> recorded_value("L50D")
-0.607
>>> recorded_value("S42N")
-0.095
>>> recorded_value("G54K")
-0.461
>>> recorded_value("T51Q")
-0.247
>>> recorded_value("L32W")
-0.043
>>> recorded_value("K45E")
-0.173
>>> recorded_value("Q10N")
-0.128
>>> recorded_value("E1L")
-0.3
>>> recorded_value("E56R")
-0.157
>>> recorded_value("V29C")
-0.104
>>> recorded_value("S36P")
-0.08
